# ASSAY_SYSTEM: human DGAT1 (Homo sapiens)
# Construct: membrane fraction
# EXPERIMENT_DESCRIPTION: Human enzyme assay, further developed assay (14C oleoyl CoA, 96 well plate)
# ASSAY_SETUP: human DGAT1 expressed in insect cell (sf9) membranes
MEASUREMENT_LABEL: log10 of IC50 (log10 of the value in nM)
Scale: decimal log of IC50, IC50 in nM.

Known results for compounds:
{"COMPOUND": "O=C(Nc1ccc(O[C@H]2CC[C@@H](C(=O)O)CC2)nc1)c1nnc(Nc2ccc(Br)cc2Cl)o1", "log10 of IC50": 1.04}
{"COMPOUND": "O=C(Nc1cnc(O[C@H]2CC[C@@H](C(=O)O)CC2)c(F)c1)c1nnc(Nc2ccc(F)c(Cl)c2)o1", "log10 of IC50": 1.28}
{"COMPOUND": "O=C(Nc1ccc(O[C@H]2CC[C@@H](C(=O)O)CC2)nc1)c1nnc(Nc2ccc(F)c(C(F)(F)F)c2)o1", "log10 of IC50": 1.00}
{"COMPOUND": "COC[C@]1(C(=O)O)CC[C@H](Oc2ccc(NC(=O)c3nnc(Nc4cc(F)c(F)cc4F)o3)cn2)CC1", "log10 of IC50": 1.54}
{"COMPOUND": "C[C@]1(C(=O)O)CC[C@@H](Oc2ccc(NC(=O)c3nnc(Nc4ccc(F)c(F)c4)o3)cn2)CC1", "log10 of IC50": 0.92}

In: Lab note: human DGAT1 (Homo sapiens) assay, enter log10 of IC50 for `O=C(Nc1ccc(O[C@H]2CC[C@H](C(=O)O)CC2)nc1)c1nnc(Nc2cccc(Cl)c2Cl)o1` here
Out: 1.20

In: Lab note: human DGAT1 (Homo sapiens) assay, enter log10 of IC50 for `O=C(Nc1ccc(O[C@H]2CC[C@@H](C(=O)O)CC2)nc1)c1nnc(Nc2cccc(OC(F)(F)F)c2)o1` here
Out: 1.36

In: Lab note: human DGAT1 (Homo sapiens) assay, enter log10 of IC50 for `CC(C)(C)c1ccc(Nc2nnc(C(=O)Nc3ccc(O[C@H]4CC[C@H](C(=O)O)CC4)nc3)o2)cc1` here
Out: 1.68

In: Lab note: human DGAT1 (Homo sapiens) assay, enter log10 of IC50 for `O=C(Nc1ccc(O[C@H]2CC[C@@H](C(=O)O)CC2)nc1F)c1nnc(Nc2ccc(F)c(F)c2)o1` here
Out: 0.53

In: Lab note: human DGAT1 (Homo sapiens) assay, enter log10 of IC50 for `O=C(O)c1ccc(Oc2ccc(NC(=O)c3nnc(Nc4ccc(F)c(Cl)c4)o3)cn2)cc1` here
Out: 0.88

In: Lab note: human DGAT1 (Homo sapiens) assay, enter log10 of IC50 for `Cc1nc(O[C@H]2CC[C@@H](C(=O)O)CC2)ccc1NC(=O)c1nnc(Nc2ccc(F)c(F)c2)o1` here
Out: 1.76

In: Lab note: human DGAT1 (Homo sapiens) assay, enter log10 of IC50 for `COc1cc(O[C@H]2CC[C@@H](C(=O)O)CC2)ncc1NC(=O)c1nnc(Nc2ccc(Br)cc2Cl)o1` here
Out: 1.73

----------
Catalogue of pIC50 readings, one per entry.
# ASSAY_SYSTEM: human DGAT1 (Homo sapiens)
# Construct: membrane fraction
# EXPERIMENT_DESCRIPTION: Human enzyme assay, further developed assay (14C oleoyl CoA, 96 well plate)
# ASSAY_SETUP: human DGAT1 expressed in insect cell (sf9) membranes
Scale note: pIC50 = -log10(concentration in M).

Known results for molecules:
{"MOLECULE": "O=C(Nc1ccc(O[C@@H]2CC[C@@H](C(=O)O)C2)nc1)c1nnc(Nc2ccc(F)c(F)c2)o1 [Example 49]", "pIC50": 7.74}
{"MOLECULE": "O=C(Nc1ccc(O[C@H]2CC[C@@H](C(=O)O)CC2)nc1)c1nnc(Nc2cccc(Cl)c2Cl)o1 [Example 14]", "pIC50": 7.96}

# input for lookup
In: Supply measured pIC50 of O=C(Nc1ccc(O[C@H]2CC[C@@H](C(=O)O)CC2)nc1)c1nnc(Nc2ccc(F)c(F)c2)o1 [Example 1] in your reply.
Out: 7.96

----------
# ASSAY_SYSTEM: human DGAT1 (Homo sapiens)
# Construct: membrane fraction
# Sequence (O75907 1-488): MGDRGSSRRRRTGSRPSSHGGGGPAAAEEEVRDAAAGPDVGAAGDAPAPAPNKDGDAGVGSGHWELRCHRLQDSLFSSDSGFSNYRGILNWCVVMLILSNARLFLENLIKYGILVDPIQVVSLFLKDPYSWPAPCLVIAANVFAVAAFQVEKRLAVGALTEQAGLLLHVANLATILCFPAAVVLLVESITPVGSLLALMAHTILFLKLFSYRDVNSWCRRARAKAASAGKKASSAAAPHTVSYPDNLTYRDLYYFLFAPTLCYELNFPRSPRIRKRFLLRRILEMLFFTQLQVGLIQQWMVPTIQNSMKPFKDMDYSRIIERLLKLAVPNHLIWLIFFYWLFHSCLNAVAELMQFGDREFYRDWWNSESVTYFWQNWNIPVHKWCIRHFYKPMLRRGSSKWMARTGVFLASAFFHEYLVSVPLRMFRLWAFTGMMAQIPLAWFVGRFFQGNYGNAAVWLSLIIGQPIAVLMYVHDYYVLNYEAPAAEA
# EXPERIMENT_DESCRIPTION: Human enzyme assay, further developed assay (14C oleoyl CoA, 96 well plate)
# ASSAY_SETUP: human DGAT1 expressed in insect cell (sf9) membranes
Classify: true when IC50 is strictly less than 20 nM; false when IC50 is not.

{"MOLECULE": "CS(=O)(=O)NC(=O)[C@H]1CC[C@@H](Oc2ccc(NC(=O)c3nnc(Nc4ccc(F)c(F)c4)o3)cn2)CC1", "ASSAY_SYSTEM": "human DGAT1 (Homo sapiens)", "LABEL_VALUE": "true"}
{"MOLECULE": "COc1cc(NC(=O)c2nnc(Nc3ccc(F)c(Cl)c3)o2)cnc1O[C@H]1CC[C@@H](C(=O)O)CC1", "ASSAY_SYSTEM": "human DGAT1 (Homo sapiens)", "LABEL_VALUE": "false"}
{"MOLECULE": "Cc1cc(OC2CCC(C(=O)O)CC2)ncc1NC(=O)c1nnc(Nc2ccc(Cl)c(F)c2)o1 (stereo not shown)", "ASSAY_SYSTEM": "human DGAT1 (Homo sapiens)", "LABEL_VALUE": "true"}
{"MOLECULE": "COc1cc(NC(=O)c2nnc(Nc3ccc(F)c(F)c3)o2)cnc1O[C@H]1CC[C@@H](C(=O)O)CC1", "ASSAY_SYSTEM": "human DGAT1 (Homo sapiens)", "LABEL_VALUE": "false"}
{"MOLECULE": "O=C(Nc1ccc(O[C@H]2CC[C@H](C(=O)O)CC2)nc1)c1nnc(Nc2ccc(Br)cc2Cl)o1", "ASSAY_SYSTEM": "human DGAT1 (Homo sapiens)", "LABEL_VALUE": "false"}
{"MOLECULE": "O=C(Nc1ccc(O[C@H]2CC[C@@H](C(=O)O)CC2)nc1F)c1nnc(Nc2cc(F)c(F)cc2F)o1", "ASSAY_SYSTEM": "human DGAT1 (Homo sapiens)", "LABEL_VALUE": "true"}
{"MOLECULE": "CC1(C(=O)O)CCC(Oc2ccc(NC(=O)c3nnc(Nc4ccc(Cl)cc4Cl)o3)cn2)CC1 (stereo not shown)", "ASSAY_SYSTEM": "human DGAT1 (Homo sapiens)", "LABEL_VALUE": "true"}
{"MOLECULE": "CC(C)(C)c1ccc(Nc2nnc(C(=O)Nc3ccc(O[C@H]4CC[C@@H](C(=O)O)CC4)nc3)o2)cc1", "ASSAY_SYSTEM": "human DGAT1 (Homo sapiens)", "LABEL_VALUE": "false"}

In: # TODO verify IC50 < 20 nM strictly for this molecule: O=C(Nc1ccc(OC2CCC(C(=O)O)CC2)nc1)c1nnc(Nc2ccc(F)cc2)o1 (stereo not shown)
Out: true

In: # TODO verify IC50 < 20 nM strictly for this molecule: `O=C(Nc1ccc(O[C@H]2CC[C@H](C(=O)O)CC2)nc1)c1nnc(Nc2cccc(Cl)c2)o1`
Out: true

In: # TODO verify IC50 < 20 nM strictly for this molecule: `O=C(Nc1ccc(O[C@H]2C[C@@H](C(=O)O)C2)nc1)c1nnc(Nc2ccc(F)c(F)c2)o1`
Out: false

In: # TODO verify IC50 < 20 nM strictly for this molecule: `O=C(Nc1ccc(O[C@H]2CC[C@@H](C(=O)O)CC2)nc1)c1nnc(Nc2cc(C(F)(F)F)c(F)cc2F)o1`
Out: false

----------
# ASSAY_SYSTEM: human DGAT1 (Homo sapiens, UniProt O75907)
# Construct: membrane fraction
# EXPERIMENT_DESCRIPTION: Human enzyme assay, further developed assay (14C oleoyl CoA, 96 well plate)
# ASSAY_SETUP: human DGAT1 expressed in insect cell (sf9) membranes
Catalogue of IC50 readings, one per entry.
A bare number is not enough; add the unit after it.

{"MOLECULE": "O=C(Nc1ccc(OC2CCC(C(=O)O)CC2)nc1)c1nnc(Nc2cc(F)c(F)cc2F)o1 (stereo not drawn)", "IC50": "12 nM"}
{"MOLECULE": "O=C(Nc1cnc(O[C@H]2CC[C@@H](C(=O)O)CC2)c(Cl)c1)c1nnc(Nc2ccc(F)c(F)c2)o1", "IC50": "22 nM"}

# input for lookup
In: Supply measured IC50 of `Cc1cc(O[C@H]2CC[C@@H](C(=O)O)CC2)ncc1NC(=O)c1nnc(Nc2ccc(F)c(F)c2)o1` in your reply.
Out: 3.5 nM
